Cited source for all entries: PubChem BioAssay AID1159580

test: chemical genetic growth profiling, strain panel (AID 1159580);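 also: tested at 20 µM; growth read once vehicle control cultures reached saturation at 30 °C; 1 = growth at the plate median or of vehicle wells; lower values mean less growth of the strain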; conditions: S. cerevisiae deletion strains, growth OD, locus YNL322C, strain KRE1 (second series), hits give low values
In all, about 5,500 compounds went through this assay and about 2,000 (36%) were called active. Another 18% or so got no clear call; they are omitted. The list shows a part of the results.
normalized growth overview
MEASUREMENT_TYPE: normalized growth

compound="CC(=O)/C=C\\[C@@H]1[C@@]2(C)CCCC(C)(C)C2CC[C@@]1(C)O (stereo not given in full)" value_observed=0.989
compound=Cc1ccnc(NS(=O)(=O)c2ccc(N)cc2)n1 value_observed=0.998
compound="CC1(C)CC(O)C2(C)CCC3(C)C(=CCC4C5(C)CCC(O)C(C)(CO)C5CCC43C)C2C1 (stereo not given)" value_observed=1.02
compound=Cc1ccc(N=CN(C)C=Nc2ccc(C)cc2C)c(C)c1 value_observed=0.967
compound="CC1(C)CC[C@]2(C(=O)O)CC[C@]3(C)C(=CCC4[C@@]5(C)CC[C@H](O)[C@@](C)(CO)C5CC[C@]43C)C2C1 (stereo not given in full)" value_observed=1.02
compound=CCCOc1ccccc1-c1nc2n[nH]nc2c(=O)[nH]1 value_observed=0.998
compound="Nc1c2c(nc3ccccc13)CCCC2O (stereo not given)" value_observed=1.01
compound=O=C1c2c(O)cccc2Cc2cccc(O)c21 value_observed=0.988
compound="CC(C)=CCCC1(C)C=Cc2c(O)c3c(c(CC=C(C)C)c2O1)OC12C(=CC4CC1C(C)(C)OC2(C/C=C(/C)C(=O)O)C4=O)C3=O (stereo not given)" value_observed=0.964
compound=Clc1ccccc1C(c1ccccc1)(c1ccccc1)n1ccnc1 value_observed=0.0616
compound=CNCc1ccccc1 value_observed=1.02
compound=Cc1cc(-n2c(=O)[nH]c(=O)n(C)c2=O)ccc1Oc1ccc(SC(F)(F)F)cc1 value_observed=1.03
compound=Nc1c2ccccc2nc2ccccc12 value_observed=0.981
compound="Cc1ccc(S(=O)(=O)NC(=O)NN2CC3CCCC3C2)cc1 (stereo not given)" value_observed=0.978
compound="C#C[C@]1(OC(C)=O)CCC2C3CCC4=C/C(=N\\O)CCC4C3CC[C@@]21CC (stereo not given in full)" value_observed=1.01
compound=NC(N)=N/N=C/c1c(Cl)cccc1Cl value_observed=0.956
compound="CC(=O)O[C@@H]1CC[C@@]2(C)C(CC[C@]3(C)C2CC=C2C4CC(C)(C)CC[C@]4(C(=O)O)CC[C@]23C)C1(C)C (stereo not given in full)" value_observed=0.988
compound="CC1OC(=O)C(C(C)C)NC(=O)C(C(C)C)OC(=O)C(C(C)C)NC(=O)C(C)OC(=O)C(C(C)C)NC(=O)C(C(C)C)OC(=O)C(C(C)C)NC(=O)C(C)OC(=O)C(C(C)C)NC(=O)C(C(C)C)OC(=O)C(C(C)C)NC1=O (stereo not given)" value_observed=0.463
compound=Nc1c2c(nc3ccccc13)CCCC2 value_observed=1.01
compound="CC(CC(=O)C(O)C(C)(C)O)C1C(=O)CC2(C)C3=CCC4C(C)(C)C(OC5OCC(O)C(O)C5O)CCC45CC35C(O)CC12C (stereo not given)" value_observed=1.01

* * *

assay: chemical genetic growth profiling, strain panel (AID 1159580);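 also: tested at 20 µM; growth read once vehicle control cultures reached saturation at 30 °C; 1 = growth at the plate median or of vehicle wells; lower values mean less growth of the strain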; conditions: S. cerevisiae deletion strains, growth OD, locus YJL157C, strain FAR1, hits give low values
Out of some 5,500 compounds screened, about 2,000 (36%) were called active. About 18% were inconclusive and are not listed. The list shows a part of the results.
Binarize normalized growth at 0.9; below is 1, at or above is 0.

compound=O=C(Nc1ccc(Cl)cc1)SCc1c(Cl)cccc1Cl label_class=1
compound=Cc1nc(-c2ccccn2)nc(N(C)Cc2ccccc2)c1Cl label_class=0
compound=Cc1oc(C(C)(C)C)cc1-c1cc(N)n(-c2ccc(I)cc2)n1 label_class=0
compound=Cc1nc(-c2ccccn2)nc(SCc2ccccc2)c1Cl label_class=1
compound=Cc1csc(NC(=O)Nc2ccc(C(F)(F)F)cc2)c1 label_class=1
compound=Fc1ccc(NC(=S)N2CCCN(Cc3ccc(Cl)cc3Cl)CC2)cc1 label_class=0
compound="CC(C)Cc1ccc(C(C)C(=O)Nc2nn(C)c3ccccc23)cc1 (stereo unspecified)" label_class=0
compound=S=C(Nc1ccc(Cl)cc1)SCc1c(Cl)cccc1Cl label_class=0
compound=Cc1csc(NC(=O)Nc2ccc(C(F)(F)F)cc2)c1Cl label_class=1
compound=Cc1ccc(S(=O)(=O)n2c(Sc3ccc([N+](=O)[O-])cc3[N+](=O)[O-])nc3cc(C)ccc32)cc1 label_class=0
